Test system: UACC-62
Test: NCI tumour cell line growth inhibition, 48 h
Active and inactive are the calls of the source. Cut-off read from the data, not from the text of the source: active = GI50 up to about 1.1 µM and inactive = higher.
outcome-measure: GI50

COc1ccc(/C=C/C(=O)c2cc(C(C)(C)C)c(O)c(C(C)(C)C)c2)cc1OC    10 µM (inactive)

Provide GI50 values for the following items, in order.
1. CCOC(=O)CC[C@H](N)C(=O)N[C@H](Cc1ccc(N(CCCl)CCCl)cc1)C(=O)OCC
2. CC12CCC(C1)C(C)(C)C2OC(=O)c1ccccc1N (stereo unspecified)
3. CCN(C(C)=O)c1cnc(/C=N/NC(N)=S)c2ccccc12
4. COc1cc(Cl)cc(O)c(=O)c1OC
5. COc1ccc(S(=O)(=O)N2C(=O)CCC2C(=O)NN)cc1 (stereo unspecified)

1. 1.51 µM (inactive)
2. 15.5 µM (inactive)
3. 3.3 µM (inactive)
4. 24.4 µM (inactive)
5. > 100 µM (inactive)

---

System: NCI-H522
Experiment: NCI tumour cell line growth inhibition, 48 h
The source made the active and inactive calls. Cut-off read from the data, not from the text of the source: active = GI50 up to about 1.1 µM and inactive = higher.
Would you mind answering with one of these outcomes? active, inactive

Answered examples (2):
O=C1C=CC2(CCC23C=CC(=O)O3)O1 (stereo not drawn)    inactive
O=C1OC(c2ccccc2)=N/C1=C/NC(CO)C(=O)O (stereo not drawn)    inactive

So what was the verdict on CCN(C(C)=O)c1cnc(/C=N/NC(N)=S)c2ccccc12 in this test?
inactive

Query CSc1nc(NC2OC(CO)C(O)C(O)C2O)c(N)c(=O)n1C (stereo not drawn) next
inactive

Query O=c1[nH]n(Cc2ccccc2Cl)c2ccccc12 next
inactive

Query Nc1cc(=O)n(-c2ccccc2)c(=S)n1-c1ccccc1 next
inactive

Query Oc1cc(CN2CCOCCOCCOCCOCC2)c(O)cc1CN1CCOCCOCCOCCOCC1 next
inactive

Query CNNC1=NS(=O)(=O)c2cc(C#N)c(Cl)cc2S1 next
inactive

Query CCOC(=O)C1CC/C(=C(/C#N)C(=O)OC)N1 (stereo not drawn) next
inactive

Query COC(=O)/C(=N\N)C(C(=O)C(=O)Nc1cc(Cl)ccc1Cl)c1nc2ccc([N+](=O)[O-])cc2nc1O (stereo not drawn) next
inactive

Query O=C(O)c1cc(=O)c2[nH]c3ccccc3c2s1 next
inactive

Query C[Si](C)(C)/N=C1\N2C(=NC1(C(F)(F)F)C(F)(F)F)Sc1ccccc12 next
inactive

Query Cc1cn(C2CCC(CO)(CF)O2)c(=O)[nH]c1=O (stereo not drawn) next
inactive

---

Tested on: SK-MEL-28
Test: NCI tumour cell line growth inhibition, 48 h
Active and inactive are the calls of the source. No stated cut-off is given here; in the data, active = GI50 up to about 1.1 µM and inactive = higher.
Would you mind answering with one of these outcomes? t (active), f (inactive)

Answered examples (3):
O=C1C=C(NCCOCCO)C(=O)c2c(O)ccc(O)c21    f
CC(C)(CO)NC(=O)c1cccc(C(=O)NC(C)(C)CO)c1Br    f
COc1cccc(C=C2N=C(c3ccccc3)N(n3c(-c4ccccc4)nc4ccccc4c3=O)C2=O)c1    f

So what was the verdict on CSc1c(C(=O)Nc2ccc(Cl)cc2)c(N)nn1-c1ccccc1 in this test?
f

Query O=c1[nH]/c(=C/c2ccc(OCc3ccccc3)cn2)c(=O)[nH]/c1=C/c1ccccc1 next
f

Query CCC1(CCSC(=N)N)C(=O)NC(=O)NC1=O next
f

Query CC12CCC3c4cc(Br)c(O)c(Br)c4CCC3C1CCC2O (stereo not given) next
f

Query CCCCCc1c2nc(c(CCCCC)c3ccc([nH]3)c(CCCCC)c3nc(c(CCCCC)c4ccc1[nH]4)C=C3)C=C2 next
f

Query C(=C(c1ccc(OC2CCCCO2)cc1)c1ccc(OC2CCCCO2)cc1)c1ccccc1 (stereo not given) next
t

Query c1ccc(CSCCc2ccncc2)cc1 next
f

---

Answer each item with its documented GI50.
Test system: UO-31
Assay: NCI tumour cell line growth inhibition, 48 h
The source made the active and inactive calls. Rule as the data show it: active = GI50 up to about 1.1 µM and inactive = higher.

See these solved cases before continuing.
Cc1c(CCOC=O)c(=O)[nH]c2nncn12    > 100 µM (inactive)
CCOC(=O)CCC(NC(=O)c1ccc(OCc2nc3cc(C(F)(F)F)ccc3nc2-c2ccccc2)cc1)C(=O)OCC (stereo not drawn)    37.9 µM (inactive)
C(=C(c1ccc(OC2CCCCO2)cc1)c1ccc(OC2CCCCO2)cc1)c1ccccc1 (stereo not drawn)    0.895 µM (active)

Provide GI50 values for the following items, in order.
1. O=C(O)C(SC1=NC(=O)C2(NN1)c1ccccc1-c1ccccc12)SC1=NC(=O)C2(NN1)c1ccccc1-c1ccccc12
2. CC(C)=CC(C)C(C(O)CCC1(c2ccoc2)OCCO1)S(=O)(=O)c1ccccc1 (stereo not drawn)
3. CCn1ncc(Oc2c(Cl)cc(N)cc2Cl)c(Cl)c1=O
4. O=C1C=C(NCCOCCO)C(=O)c2c(O)ccc(O)c21
5. N#Cc1cc(NC(=O)c2ccccc2)c(=O)n2c1[nH]c1ccccc12
6. CCOP(=O)(OCC)/C(C#N)=C/c1c(C)[nH]c2ccccc12
7. Cc1cn(C2CC(O)C(COC(N)=O)O2)c(=O)[nH]c1=O (stereo not drawn)
8. Cc1c2oc(=O)c(C#N)cc2c2ccccn12

1: > 10 µM (inactive); 2: > 100 µM (inactive); 3: 47.4 µM (inactive); 4: 59.8 µM (inactive); 5: 18.3 µM (inactive); 6: 30.4 µM (inactive); 7: > 100 µM (inactive); 8: 60.7 µM (inactive)

---

System: HT-29
Assay: NCI tumour cell line growth inhibition, 48 h
Active and inactive are the calls of the source. No stated cut-off is given here; in the data, active = GI50 up to about 1.1 µM and inactive = higher.
Would you mind answering with one of these outcomes? true = active, false = inactive

Answered examples (3):
Cc1nn(-c2ccccc2)c2c1CC(=O)Nc1ccccc1-2    true
CNNC1=NS(=O)(=O)c2cc(C#N)c(Cl)cc2S1    false
O=c1[nH]/c(=C/c2ccc(OCc3ccccc3)cn2)c(=O)[nH]/c1=C/c1ccccc1    true

So what was the verdict on CC(=O)OCc1cc(OC(C)=O)cnc1COC(C)=O in this test?
false

Query COc1ccc(N2C(=O)CC(=O)N(C(=O)CCCCCCCCC(=O)N3C(=O)CC(=O)N(c4ccc(OC)cc4)C3=S)C2=S)cc1 next
false

Query CCC1CN2CCc3cc(OC)c(OC)cc3C2CC1CC1c2cc(OC)c(OC)cc2CCN1C(=O)C(N)Cc1ccccc1.[O-][Cl+3]([O-])([O-])O (stereo unspecified) next
true

Query C1=CC=C2NCCCCCCC/N=C3/C=CC=CC=C3NCCCCCCC/N=C\2C=C1 next
false

Query CC(=O)N(CN1C(=O)CCC1C(=O)O)c1ccc(C)cc1 (stereo unspecified) next
false

Query CCCCN(CCCC)CCCCNc1c(C)cnc2cc(Cl)ccc12 next
false

Query COc1ccc2nccc(C3=CCC4CCN(C(=O)c5ccccc5)C3C4)c2c1 (stereo unspecified) next
false

Query CCOC(=O)c1csc(C(CSCc2ccc(OC)cc2)N2C(=O)c3ccccc3C2=O)n1 (stereo unspecified) next
false

---

Answer each item with its documented GI50.
System: UACC-62
Assay: NCI tumour cell line growth inhibition, 48 h
Active and inactive are the calls of the source. Cut-off read from the data, not from the text of the source: active = GI50 up to about 1.1 µM and inactive = higher. Starred links: 1 amine or outer side, 2 acyl side, 3 side chain; linkers in the order of their positions; H or OH if unused. Positions of bridges follow the written chain, without caps; N, C: chain ends. Non-standard residues stand in square brackets, D forms with d. Residues, ends and D or L forms follow the SMILES beside them. Chains are numbered I, II in the order given. Actinocin(9to1) = Cc1c2oc3c(C)ccc(C(=O)[*:1])c3nc-2c(C(=O)[*:2])c(N)c1=O; NMeT = CN[CH](C(=O)O)[CH](C)O; Sar = CNCC(=O)O

See these solved cases before continuing.
COc1c(C(C)(C)C)cc(CC2C(=O)C=CC2=O)cc1C(C)(C)C    17.9 µM (inactive)
C(/c1ccco1)=c1/nc(-c2ccccc2)n2c1nc1ccccc12    63.1 µM (inactive)

Provide GI50 values for the following items, in order.
1. O=C1[C@@H]2[C@@H](c3ccccc3)[C@]2(Cl)C(=O)[C@H]2[C@H](c3ccccc3)[C@@]12Cl
2. Cc1c2oc3c(C)ccc(C(=O)NC4C(=O)NC(C(C)C)C(=O)N5CCCC5C(=O)N(C)CC(=O)N(C)C(C(C)O)C(=O)OC4C)c3nc-2c(C(=O)NC2C(=O)NC(C(C)C)C(=O)N3CCCC3C(=O)N(C)CC(=O)N(C)C(C(C)O)C(=O)OC2C)c(N)c1=O (stereo unspecified) (I: TVP[Sar][NMeT] / II: TVP[Sar][NMeT]; ester I:1-I:C, II:1-II:C; linker I:N-II:N via Actinocin(9to1); configuration not given here)
3. CCCCCc1c2nc(c(CCCCC)c3ccc([nH]3)c(CCCCC)c3nc(c(CCCCC)c4ccc1[nH]4)C=C3)C=C2
4. CC1CN(CCO)CC(C)O1 (stereo unspecified)

1. > 100 µM (inactive)
2. 0.478 µM (active)
3. > 100 µM (inactive)
4. > 100 µM (inactive)
